Property: Kd; scope: individual binders
# assayTarget: T1, human IL-18BP (human, UniProt O95998 31-194)
# T1 construct: UniProt printed as 095998; also called hIL-18BP
# T1 sequence: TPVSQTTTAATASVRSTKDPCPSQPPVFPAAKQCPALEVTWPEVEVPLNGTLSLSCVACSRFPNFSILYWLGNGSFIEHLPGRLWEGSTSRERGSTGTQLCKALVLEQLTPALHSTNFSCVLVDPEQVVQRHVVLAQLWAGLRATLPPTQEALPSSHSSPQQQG
# procedureDetails: BLI, apparent KD
parameter: Kd (nM)

binder	scaleUnit	number
SA302a HC-H35R (antibody, V domains shown) VH: QVQLQESGPGLVKPSQTLSLTCTVSGYSITSDYNARWIRQPPGKGLEWIGYIHYSGSTNYNPSLKSRVTISRDTSKNQFSLKLSSVTAADTAVYYCARNYGSIYVNYFDYWGQGTLVTVSS VL: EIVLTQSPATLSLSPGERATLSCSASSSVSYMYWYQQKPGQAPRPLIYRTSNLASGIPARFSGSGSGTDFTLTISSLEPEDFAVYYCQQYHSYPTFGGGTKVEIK	nM	1.18
SA302a HC-T30F (antibody, V domains shown) VH: QVQLQESGPGLVKPSQTLSLTCTVSGYSIFSDYNAHWIRQPPGKGLEWIGYIHYSGSTNYNPSLKSRVTISRDTSKNQFSLKLSSVTAADTAVYYCARNYGSIYVNYFDYWGQGTLVTVSS VL: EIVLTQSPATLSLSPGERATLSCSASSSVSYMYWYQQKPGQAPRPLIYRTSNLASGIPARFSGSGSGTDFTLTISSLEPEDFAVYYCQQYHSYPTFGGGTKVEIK	nM	1.29
SA302a HC-Y33aH (antibody, V domains shown) VH: QVQLQESGPGLVKPSQTLSLTCTVSGYSITSDHNAHWIRQPPGKGLEWIGYIHYSGSTNYNPSLKSRVTISRDTSKNQFSLKLSSVTAADTAVYYCARNYGSIYVNYFDYWGQGTLVTVSS VL: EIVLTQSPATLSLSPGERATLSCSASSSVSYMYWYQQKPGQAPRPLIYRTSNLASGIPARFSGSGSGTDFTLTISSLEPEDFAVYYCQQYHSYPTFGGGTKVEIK	nM	4.11
SA302a HC-S31M (antibody, V domains shown) VH: QVQLQESGPGLVKPSQTLSLTCTVSGYSITMDYNAHWIRQPPGKGLEWIGYIHYSGSTNYNPSLKSRVTISRDTSKNQFSLKLSSVTAADTAVYYCARNYGSIYVNYFDYWGQGTLVTVSS VL: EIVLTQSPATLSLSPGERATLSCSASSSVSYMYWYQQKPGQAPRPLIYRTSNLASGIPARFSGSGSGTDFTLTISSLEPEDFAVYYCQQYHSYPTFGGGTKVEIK	nM	0.61
SA302a HC-Y33aR (antibody, V domains shown) VH: QVQLQESGPGLVKPSQTLSLTCTVSGYSITSDRNAHWIRQPPGKGLEWIGYIHYSGSTNYNPSLKSRVTISRDTSKNQFSLKLSSVTAADTAVYYCARNYGSIYVNYFDYWGQGTLVTVSS VL: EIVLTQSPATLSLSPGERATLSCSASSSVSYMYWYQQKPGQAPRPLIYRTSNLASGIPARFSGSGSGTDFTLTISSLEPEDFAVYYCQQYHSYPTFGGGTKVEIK	nM	8.72
